melting point by entry:

The cases that follow already have their melting point on record.
COc1ccc(/C=C/C(=O)NCC(=O)CO[Si](C)(C)C(C)(C)C)cc1 [Example 17] = 151 to 152 °C
CN(C)c1ccc(C(=O)NCC(O)CO[Si](C)(C)C(C)(C)C)cc1 (stereo not drawn) [Example 15] = 127 to 128 °C
COc1ccc(/C=C/C(=O)OCC(=O)COC(=O)/C=C/c2ccc(OC)cc2)cc1 [Example 23] = 146 to 148 °C
COc1ccc(/C=C/C(=O)OCC(=O)CO)cc1 [Example 1a] = 172 to 174 °C
N#CC(C(=O)OCC(=O)CO)=C(c1ccccc1)c1ccccc1 [Example 1b] = 204 °C (dec.)
CN(C)c1ccc(C(=O)NCC(O)CO)cc1 (stereo not drawn) [Example 10d] = 152 to 153 °C
CN(C)c1ccc(C(=O)OCC(=O)CO)cc1 [Example 3] = 129 to 131 °C
N#CC(C(=O)OCC(=O)COC(=O)C(C#N)=C(c1ccccc1)c1ccccc1)=C(c1ccccc1)c1ccccc1 [Example 23b] = 209 °C

Memo: COc1ccc(/C=C/C(=O)NCC(O)CO[Si](C)(C)C(C)(C)C)cc1 (stereo not drawn) [Example 12] , reported melting point: 107 to 109 °C

Memo: CCCCC(CC)COc1ccc(/C=C/C(=O)NCC(=O)CO)cc1 (stereo not drawn) [Example 21] , reported melting point: 155 to 157 °C

Memo: COc1ccc(/C=C/C(=O)NCC(=O)CO)cc1 [Example 20] , reported melting point: 160 to 162 °C

Memo: CN(C)c1ccc(C(=O)OCC(=O)CO[Si](C)(C)C(C)(C)C)cc1 [Example 2] , reported melting point: 91 to 92 °C

Memo: CCCCC(CC)COc1ccc(/C=C/C(=O)OCC(=O)COC(=O)/C=C/c2ccc(OCC(CC)CCCC)cc2)cc1 (stereo not drawn) [Example 23a] , reported melting point: 77 to 79 °C

Memo: COc1ccc(/C=C/C(=O)N(C)CC(O)CO)cc1 (stereo not drawn) [Example 10b] , reported melting point: 81 to 83 °C

Memo: COc1ccc(/C=C/C(=O)NCC(O)CO)cc1 (stereo not drawn) [Example 10a] , reported melting point: 104 to 106 °C

The measured values listed here are drawn from patent US7863478B2.
